Overview of reported % Blockade with 100 nM antibody across a group of binders:
# Measured Target: T1, mouse TrkB.hFc (mouse)
# T1 construct: also called mTrkB.hFc; mTrkB-hFc
# T1 sequence (chain, as listed by the source limits assumed): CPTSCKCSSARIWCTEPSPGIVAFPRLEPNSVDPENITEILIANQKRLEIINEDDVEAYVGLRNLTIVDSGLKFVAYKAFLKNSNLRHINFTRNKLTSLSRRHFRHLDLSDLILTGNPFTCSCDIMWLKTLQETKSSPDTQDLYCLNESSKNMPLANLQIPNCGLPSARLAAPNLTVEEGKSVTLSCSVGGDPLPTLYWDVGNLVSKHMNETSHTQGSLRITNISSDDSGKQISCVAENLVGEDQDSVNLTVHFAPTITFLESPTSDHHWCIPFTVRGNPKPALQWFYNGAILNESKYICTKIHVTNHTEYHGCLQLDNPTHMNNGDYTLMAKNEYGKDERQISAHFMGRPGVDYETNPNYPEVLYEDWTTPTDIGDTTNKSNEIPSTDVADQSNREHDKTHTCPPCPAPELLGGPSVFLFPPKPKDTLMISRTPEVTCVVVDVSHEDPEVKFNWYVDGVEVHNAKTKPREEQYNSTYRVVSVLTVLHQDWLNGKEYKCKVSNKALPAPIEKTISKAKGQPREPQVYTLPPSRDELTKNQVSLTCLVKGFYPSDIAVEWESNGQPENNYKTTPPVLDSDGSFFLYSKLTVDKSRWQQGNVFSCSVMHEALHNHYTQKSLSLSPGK
# Assay Protocol: blocking ELISA, mouse TrkB.hFc pre-mixed with mAb, plate-coated BDNF
Numbers only here, please. The scale is %.

* M2aM14178N (antibody, mouse IgG2a, V domains shown, Anti-mouse TrkB antibody from hybridoma, mouse IgG2a Fc; also called surrogate anti-mouse TrkB antibody) VH: EVQLVESGGGLVKPGGSLKLSCTASGFTFSSYAMSWVRQTPEKRLEWVANISDGGTYTYYPDNIKGRFTISRDNAKNNLYLQMSHLESEDTAMYYCIRGDVYYVRFAYWGQGTLVTVSA VL: QAVVTQESALTTSPGETVTLTCRSSTGAVTSSNHANWVQEKPDHLFTGLIGGTNNRAPGVPARFSGSLIGDKAALTITGAQTEDEAIYFCALWHSNHWVFGGGTKLTVLG | 84.4
* H1M8037C (antibody, mouse IgG1, kappa, V domains shown, captured by anti-mFc in SPR; also called Comparator; comparator anti-TrkB monoclonal antibody) VH: QVQLVQSGAEVKKPGASVKVSCKASGYTFTNYDIIWVRQAPGQGLEWMGYINPYNDGTKYNEKFKGRVTMTRDTSTSTVYMELSSLRSEDTAVYYCARLLKYRRFRYYAIDYWGQGTTVTVSS VL: DIQMTQSPSSLSASVGDRVTITCRTSENVYSNLAWYQQKPGKAPKLLIYAASNLQSGVPSRFSGSGSGTDYTFTISSLQPEDIATYYCQHFWGSPFTFGQGTKLEIKR | 91.5
* M2aM14179N (antibody, mouse IgG2a, kappa, V domains shown, Anti-mouse TrkB antibody from hybridoma, mouse IgG2a Fc; also called surrogate anti-mouse TrkB antibody) VH: EVQLQQSGPELVKPGASVKISCKASGYTLTDYYMNWVKQSHGKSLEWIGDINPNNGGTSYNQKFKGKATLTVDKSSSTAYMELRSLTSEDSAVYYCARGAYYSNYFDYWGQGTTLTVSS VL: DIVMSQSPSSLAVSAGEKVTMSCKSSQSLLNSRTRKNYLAWYQQKPGQSPKLLIYWASTRESGVPDRFTGSGSGTDFTLTISSVQAEDLAVYYCKQSYILFTFGSGTQLEIKR | 11.6

Lab note: next binder to report on.
Challenge: Find the recorded % Blockade with 100 nM antibody belonging to M2aM14173N (antibody, mouse IgG2a, kappa, V domains shown, Anti-mouse TrkB antibody from hybridoma, mouse IgG2a Fc; also called surrogate anti-mouse TrkB antibody) VH: NVSLVESGGGSVKPGGSLQLSCAASGFTFSSSAMSWIRQTPEMRLEWVATISDRGSYTYYPDSVEGRFTISRDNAKNILYLQMSHLMSEDTAMYYCARGKGEKAYYTAFFAYWGQGSLVTVSA VL: DIQMTQSPASLSASVGETVTITCRASENIYSYLAWYQQKPGKSPHLLVHNAETLAEGVPSRFSGSGSGPQFSLKINSLQPGDSGTYYCQHHYSSPWTFGGGTKLEIKR and report it.
Response given: 29.7

Data provenance is patent US20190161551A1.
